B1: minF1; a variant is named by its letters at N, in order (parent)
chain: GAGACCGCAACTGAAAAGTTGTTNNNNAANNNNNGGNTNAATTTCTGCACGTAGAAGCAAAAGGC

# Variants of: B1
# experiment: fraction ligated after 30 min (ligated reads / total reads); higher = more ligase activity
# condition-summary: with F1*subA RNA substrate (template-directed ligation), 42 °C
measure-name: fraction ligated
Give a plain numeric answer without units written out.

For ACGAGGATGTG A29T , what is its reported fraction ligated?
0.0139

Recorded fraction ligated of ATCAATGATGT A40G , please.
0.0188

// fraction ligated lookup, key: ACAGATGATGT A40G
0.00654

What fraction ligated value was documented for this variant, CAGAGGATGTG T23A A29T ?
0.00891
